target.or.test.system: myosin A tail
measurement.notes: Isothermal titration calorimetry, myosin A tail into ZA1
Assay type: binding, Plasmodium falciparum
condition.info: ITC200, 25 °C, phosphate buffer; 150 µM myosin A tail in syringe, 10 µM ZA1 in cell; single site model
assay.metric: Kd (nM)
Use nM as the unit, but write only the number.

Input line: Return reported Kd. Input sequence: SGRHVFKQLDIDIDIMHELDIELELDIDIDIMHPGDIDIDIDIDIQLDIELDIMHDIDIDIMHMHQLELELDIFKHVAAA [ZA1]
Output line: 719
